- experimentNotes: In vivo pharmacokinetics in plasma after oral gavage
- conditionLabel: mouse; Compound A in plasma, single PO dose 60.00 mg/kg, male CD-1 mice, single agent or with enzalutamide
endpointLabel: AUC(0-t) (µg·h/mL)
State just the number; it will be interpreted in µg·h/mL.

For `CC(C)(c1ccc(OCc2ccnc(NS(C)(=O)=O)n2)cc1)c1cc(Cl)c(OCCCl)c(C#N)c1` , what is its reported AUC(0-t)?
483

----------
- experimentNotes: In vivo pharmacokinetics in plasma after oral gavage
- conditionLabel: mouse; Compound A in plasma, single PO dose 60.00 mg/kg, male CD-1 mice, single agent or with enzalutamide
endpointLabel: Tmax (h)
State just the number; it will be interpreted in h.

For `CC(C)(c1ccc(OCc2ccnc(NS(C)(=O)=O)n2)cc1)c1cc(Cl)c(OCCCl)c(C#N)c1` , what is its reported Tmax?
4
